Data origin: patent US10800792B2

- TEST TARGET: unphosphorylated-BTK kinase domain (UP-BTK), GST-tagged human BTK (389-659aa) (Homo sapiens (Human), UniProt Q06187)
- Sequence (Q06187 389-659): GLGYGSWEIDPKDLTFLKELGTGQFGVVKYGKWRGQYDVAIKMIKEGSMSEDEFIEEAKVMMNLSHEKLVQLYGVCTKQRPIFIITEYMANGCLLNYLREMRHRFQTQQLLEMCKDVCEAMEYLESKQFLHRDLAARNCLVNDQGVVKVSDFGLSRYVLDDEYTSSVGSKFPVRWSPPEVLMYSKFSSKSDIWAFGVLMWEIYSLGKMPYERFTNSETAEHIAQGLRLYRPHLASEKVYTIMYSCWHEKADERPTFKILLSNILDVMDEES
- METHOD NOTES: BTK kinase Lanthascreen binding assay
- CONDITION SET: Lanthascreen tracer competition, 60 minutes incubation; pIC50 = negative log of the IC50 in molar; read-out: BTK_I_binding pIC50 (converted)
Quick rule for you: IC50 under 600 nM gets class 1, anything else gets class 0.

// query Is 600 nM strictly greater than the compound's reported IC50? compound: O=C(N[C@@H]1CCNC[C@H]1O)c1sc2nccc3c2c1NC(=O)N3c1ccc(Oc2ccccc2)cc1 (relative stereo) [Example 615]
// result class 0

// query Is it true that IC50 reported for C=CC(=O)N1CCCC(C(=O)Nc2sc3nccc4c3c2NC(=O)N4c2ccc(Oc3ccccc3)cc2C)C1 (stereo not shown) [Example 788] is less than 600 nM?
// result class 1

// query # check: IC50 < 600 nM for C=CC(=O)N1CCC[C@@H](NC(=O)c2sc3nccc4c3c2NC(=O)N4c2ccc(Oc3ccccc3)cc2C)C1 [Example 839]
// result class 1

// query Find out if reported IC50 for Cc1nc(Oc2ccccc2)ccc1N1C(=O)Nc2c(C(=O)N[C@@H]3CCCN(C(=O)OC(C)(C)C)C3)sc3nccc1c23 [Example 743] is less than 600 nM
// result class 0

// query Record Cc1cc(Oc2ccccc2)ccc1N1C(=O)Nc2c(C(=O)NC3CCCN(C(=O)CC#N)C3)sc3nccc1c23 (stereo in doubt) [Example 874] : is its IC50 strictly below 600 nM?
// result class 1

// query Item O=C(N[C@@H]1CCCNC1)c1sc2nccc3c2c1NC(=O)N3c1ccc(OC2CCC2)cc1 [Example 626] : IC50 beneath 600 nM, strictly?
// result class 0

// query Problem: For the compound C=CC(=O)N1CCC[C@@H](NC(=O)c2sc3nccc4c3c2NC(=O)N4c2cnc(CC(C)C)cc2C)C1 (mixture of isomers) [Example 671] , is IC50 under 600 nM?
// result class 1

// query Quick check: does Cc1cc(OC2CCC2)ccc1N1C(=O)Nc2c(C(=O)N[C@@H]3CCCNC3)sc3nccc1c23 [Example 605] have IC50 under 600 nM?
// result class 1

// query Hello, is IC50 of the following compound strictly smaller than 600 nM? O=C(N[C@@H]1CCCNC1)c1sc2nccc3c2c1NC(=O)N3c1cccc(C2CCCCC2)c1 [Example 629]
// result class 0

// query Here's an entry: C=CC(=O)N[C@H]1COC[C@H]1NC(=O)c1sc2nccc3c2c1NC(=O)N3c1cnc(Oc2ccccc2)cc1C (single isomer, unassigned) [Example 668] . Is its IC50 below 600 nM?
// result class 1

// query Lab note: IC50 threshold 600 nM. Does this compound come in strictly under it? Cc1cc(Oc2ccccc2)ccc1N1C(=O)Nc2c(C(=O)N[C@@H]3CCCN(C(=O)[C@@H]4CCCN4)C3)sc3nccc1c23 [Example 893]
// result class 1

// query Strictly below 600 nM in IC50? CC(C)(C)OC(=O)N1C[C@H](O)C[C@@H](NC(=O)c2sc3nccc4c3c2NC(=O)N4c2ccc(Oc3ccccc3)cc2)C1 (single isomer, unassigned) [Example 611]
// result class 0

// query Hi there! Is IC50 for CC(C)(C)OC(=O)N1CC[C@@H](NC(=O)c2sc3nccc4c3c2NC(=O)N4c2ccc(Oc3ccccc3)cc2)[C@H](O)C1 (relative stereo) [Example 617] below 600 nM, do you know?
// result class 0
